B1: KLHL12 (parent)
chain: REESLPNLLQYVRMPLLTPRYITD

Variants of: B1
Experiment: protein stability index of a GFP-peptide fusion (GPS, HEK-293T) (PSI 1-6); higher = more stable;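 also: lentivirally expressed fusions sorted by FACS into six bins by GFP to DsRed ratio, PSI derived from sequencing read proportions per bin multiplied by bin number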
Details: c terminus: a fixed tail appended
Label met when protein stability index is at or above 3; anything below gets not met.

[[record]]
variant_string = "M14F"
assigned_category = "not met"

[[record]]
variant_string = "S4H"
assigned_category = "not met"

[[record]]
variant_string = "P15T"
assigned_category = "not met"

[[record]]
variant_string = "L8S"
assigned_category = "met"

[[record]]
variant_string = "L8Q"
assigned_category = "met"

[[record]]
variant_string = "L8V"
assigned_category = "not met"

[[record]]
variant_string = "P19F"
assigned_category = "not met"

[[record]]
variant_string = "P19K"
assigned_category = "not met"

[[record]]
variant_string = "M14K"
assigned_category = "met"

[[record]]
variant_string = "I22V"
assigned_category = "not met"

[[record]]
variant_string = "R1S"
assigned_category = "not met"

